# assayed.system: MHC-II allele DRB1*01:01 (Homo sapiens, UniProt P01903+P01911, A100R/D57E/F55L/F60I/F76Y/I96L/L162R/M171V/P40L/Q125E/R42F/V115G/Y59C)
# Format: binding
# condition.notes: DRB1*01:01; SF-high / SF-low assigned from REVEAL scores
endpoint: Affinity for MHC-II (subfamily by experimental affinity scores)

QNHHAIHTLAIRYAN [Peptide V15]
low affinity
QPFQDIHTLAIRYAN [Peptide V5]
low affinity
QPFPDIHTLAIRYAN [Peptide V3]
low affinity

###

# assayed.system: MHC-II allele DRB1*01:01 (Homo sapiens, UniProt P01903+P01911, A100R/D57E/F55L/F60I/F76Y/I96L/L162R/M171V/P40L/Q125E/R42F/V115G/Y59C)
# Type: binding
# condition.notes: DRB1*01:01; SF-high / SF-low assigned from REVEAL scores
endpoint: Affinity for MHC-II (subfamily by experimental affinity scores)

Reference set (4 entries):
QTYHAIHTLAIRYAN [Peptide V14]
high affinity
QGLPAIHTLAIRYAN [Peptide V7]
low affinity
QGLKAIHTLAIRYAN [Peptide V10]
high affinity
QMLHAIHTLAIRYAN [Peptide V16]
high affinity

Below is a list of sequences. For each, state its recorded Affinity for MHC-II (subfamily by experimental affinity scores).
1. QTLLDIHTLAIRYAN [Peptide V1]
2. QTLTAIHTLAIRYAN [Peptide V6]
3. QTLQAIHTLAIRLAN [Peptide V11]

[out]
1. low affinity
2. high affinity
3. high affinity
